# test target: human serotonin transporter (Homo sapiens)
# Sequence (P31645 whole entry): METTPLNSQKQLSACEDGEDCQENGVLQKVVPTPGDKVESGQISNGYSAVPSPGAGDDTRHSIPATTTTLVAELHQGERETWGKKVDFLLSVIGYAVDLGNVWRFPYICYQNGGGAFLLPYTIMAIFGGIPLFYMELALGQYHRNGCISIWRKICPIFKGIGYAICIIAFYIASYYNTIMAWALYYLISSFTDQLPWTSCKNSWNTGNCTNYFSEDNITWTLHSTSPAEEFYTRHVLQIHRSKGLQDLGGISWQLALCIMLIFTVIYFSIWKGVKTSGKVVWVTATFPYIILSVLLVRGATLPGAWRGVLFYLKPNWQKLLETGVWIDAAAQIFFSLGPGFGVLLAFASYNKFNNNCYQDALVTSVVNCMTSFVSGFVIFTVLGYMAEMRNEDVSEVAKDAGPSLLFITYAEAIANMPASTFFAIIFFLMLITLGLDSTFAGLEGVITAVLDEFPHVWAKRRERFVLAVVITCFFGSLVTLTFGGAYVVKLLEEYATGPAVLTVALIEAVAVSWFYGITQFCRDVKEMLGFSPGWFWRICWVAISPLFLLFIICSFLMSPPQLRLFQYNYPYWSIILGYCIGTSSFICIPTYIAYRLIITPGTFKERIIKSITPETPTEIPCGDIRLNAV
# protocol: SERT assay, [3H] serotonin uptake in transfected CHO cells
# particulars: CHO cells with human serotonin transporter, 180 min
Here the recorded IC50 is given for each entry.
Write the number in µM without appending the unit.

COc1ccc(C2CNC(=O)C2)cc1OC1CCCC1 (stereo not drawn) [Rolipram, reference compound] : 0.0232
COc1ccc(C23CCC(O)CC2N(C)CC3)cc1OC (stereo not drawn) [Mesembranol] : 0.143

For the compound COc1ccc(C23C=CC(O)CC2N(C)CC3)cc1OC (stereo not drawn) [Mesembrenol] , give its reported IC50.
0.462

----------
# test target: human recombinant PDE-4D2 (Homo sapiens)
# Sequence (Q08499 303-809 limits assumed): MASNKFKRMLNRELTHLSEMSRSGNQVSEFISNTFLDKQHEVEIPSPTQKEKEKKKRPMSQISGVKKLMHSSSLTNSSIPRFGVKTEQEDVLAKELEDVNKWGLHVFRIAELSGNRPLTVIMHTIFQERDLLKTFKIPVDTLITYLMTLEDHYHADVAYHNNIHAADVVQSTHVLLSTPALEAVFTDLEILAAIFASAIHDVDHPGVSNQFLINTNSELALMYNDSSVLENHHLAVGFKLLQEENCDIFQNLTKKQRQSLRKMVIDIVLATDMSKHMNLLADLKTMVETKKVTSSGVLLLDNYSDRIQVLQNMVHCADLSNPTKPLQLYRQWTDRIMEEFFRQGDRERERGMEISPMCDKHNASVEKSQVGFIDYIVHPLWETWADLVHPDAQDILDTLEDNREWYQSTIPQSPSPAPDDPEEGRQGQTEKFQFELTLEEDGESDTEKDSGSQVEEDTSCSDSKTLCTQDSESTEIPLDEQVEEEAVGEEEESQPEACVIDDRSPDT
# protocol: PDE4-D2 assay (SPA)
# Type: biochemical
# particulars: human recombinant enzyme, 450 nM cAMP; read-out: IC50 PDE-4D2
pIC50: −log10 of the molar value.
endpoint: pIC50

# return pIC50 for CN(C)CCCN1c2ccccc2CCc2ccccc21 [Imipramine, reference compound] , test system: human recombinant PDE-4D2 (Homo sapiens)
6.52 to 6.84

----------
# protocol: in vivo
# particulars: male, C57BI/6J, mouse, ip, 10 mg/kg
endpoint: AUC(0-inf) (ng·h/mL)
Entry rule: numbers only, all in ng·h/mL.

COc1ccc(C23CCC(O)CC2N(C)CC3)cc1OC (centres unmarked) : 649

We now examine a further compound.
Answer with the recorded AUC(0-inf) of COc1ccc(C23C=CC(O)CC2N(C)CC3)cc1OC (centres unmarked) only.
352

These measurements were taken from patent US20250186397A1.
